target.or.system: T1, human GIP receptor (human, UniProt P48546 22-466)
T1 sequence (looked up): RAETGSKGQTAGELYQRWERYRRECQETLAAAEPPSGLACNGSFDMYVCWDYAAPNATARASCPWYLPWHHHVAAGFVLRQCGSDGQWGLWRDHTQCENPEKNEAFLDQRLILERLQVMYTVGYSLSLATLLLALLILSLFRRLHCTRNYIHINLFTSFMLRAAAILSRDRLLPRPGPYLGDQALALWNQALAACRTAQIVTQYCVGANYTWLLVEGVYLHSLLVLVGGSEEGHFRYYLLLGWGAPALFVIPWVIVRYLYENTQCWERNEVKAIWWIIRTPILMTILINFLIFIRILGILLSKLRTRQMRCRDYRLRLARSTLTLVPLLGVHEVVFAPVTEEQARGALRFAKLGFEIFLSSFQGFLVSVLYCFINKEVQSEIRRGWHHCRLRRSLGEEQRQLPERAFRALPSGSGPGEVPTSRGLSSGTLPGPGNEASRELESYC
protocol.summary: cell-based or functional assay
Numbered stars: 1 amine (or outer) side, 2 acyl side, 3 side chain; on linkers, the order of the positions; unused ones are H or OH. Square brackets hold non-standard residues; d marks the D form. Side chains are listed from the residue outwards. * marks the point of attachment. C18 diacid = O=C(O)CCCCCCCCCCCCCCCCC(=O)*; γGlu = O=C(O)[C@H](CCC(=O)[*:2])N[*:1]; Chem. 28 = not defined here; Chem. 29 = not defined here; AEEA = NCCOCCOCC(=O)O; Aib = CC(C)(N)C(=O)O
Decide using hGIPR Potency, no HSA, EC50 [pM]: a value greater than or equal to 4 pM is true (1), a smaller one is false (0).

binder: Compound 84 (peptide) peptide: H[Aib]HGTFTSDYSILLEEQAAREFIEWLLAGGPSSGEASHLSTAQTQRLSAELHRLATLPK([AEEA-AEEA-γGlu-C18 diacid])TETGSGSP-NH2
label: false (0)

binder: Compound 20 (reading uncertain) peptide: Y[Aib]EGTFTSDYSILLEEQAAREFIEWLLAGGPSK(Chem. 29)GASELSTAALGRLSAELHRLATLPRTETGSGSP-NH2
label: true (1)

binder: Compound 93 (peptide) peptide: H[Aib]HGTFTSDYSILLEEQAAREFIEWLLAGGPSSGAGQAPGQAPLASHLSTAQTQRLSAELHK([AEEA-AEEA-γGlu-C18 diacid])LATLPRTETGSGSP-NH2
label: false (0)

binder: Compound 67 (peptide) peptide: Y[Aib]EGTFTSDYSILLEEQAAREFIEWLLAGGPSRGEASELSTAALGRLSAELHK([AEEA-AEEA-γGlu-C18 diacid])LATLPRTETGSGSP-NH2
label: true (1)

binder: Compound 71 (peptide) peptide: H[Aib]HGTFTSDYSILLEEQAAREFIEWLLAGGPSRGAPPPSGGGEASHLSTQTQGRLSAELHK([AEEA-AEEA-γGlu-C18 diacid])LATLPRTETGSGSP-NH2
label: false (0)

Is hGIPR Potency, no HSA, EC50 [pM] for Compound 51 (reading uncertain) peptide: H[Aib]HGTFTSDYSILLEEQAAREFIEWLLAGGPSSGALAQTLAQTLASHLSTAQTQRLSAELHK(Chem. 28)LATLPRTETGSGSP-NH2 at or above 4 pM?
true (1)

Is hGIPR Potency, no HSA, EC50 [pM] for Compound 43 (reading uncertain) peptide: H[Aib]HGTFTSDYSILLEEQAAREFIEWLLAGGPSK(Chem. 28)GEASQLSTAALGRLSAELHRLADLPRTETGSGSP-NH2 at or above 4 pM?
true (1)

Is hGIPR Potency, no HSA, EC50 [pM] for Compound 58 (reading uncertain) peptide: Y[Aib]EGTFTSDYSILLEEQAAREFIEWLLAGGPSSGAGQAPGQAPLASHLSTAQTQRLSAELHK(Chem. 28)LATLPRTETGSGSP-NH2 at or above 4 pM?
false (0)

Origin of values: patent US20260174875A1
